Recorded values, source the supplement of paper PMC5998384.

- System: HeLa Kyoto;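 also: HeLa Kyoto cells synchronized by double thymidine or nocodazole block, proteins quantified by TMT10plex mass spectrometry, three independent biological replicates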
- protocol_description: melting temperature (median over replicates), in situ; higher = more thermally stable
- test_conditions: cell cycle stage: G1/S
Recorded melting temperature by entry
quantity: melting temperature (°C)

[[record]]
record_sequence = "MAAEEKDPLSYFAAYGSSSSGSSDEEDNIEPEETSRRTPDPAKSAGGCRNKAEKRLPGPDELFRSVTRPAFLYNPLNKQIDWERHVVKAPEEPPKEFKIWKSNYVPPPETYTTEKKPPPPELDMAIKWSNIYEDNGDDAPQNAKKARLLPEGEETLESDDEKDEHTSKKRKVEPGEPAKKKK [C1ORF52]"
assay_system = "HeLa Kyoto"
quantity = "melting temperature"
reported_value = 54.3

[[record]]
record_sequence = "MAAAMVPGRSESWERGEPGRPALYFCGSIRGGREDRTLYERIVSRLRRFGTVLTEHVAAAELGARGEEAAGGDRLIHEQDLEWLQQADVVVAEVTQPSLGVGYELGRAVAFNKRILCLFRPQSGRVLSAMIRGAADGSRFQVWDYEEGEVEALLDRYFEADPPGQVAASPDPTT [DNPH1]"
assay_system = "HeLa Kyoto"
quantity = "melting temperature"
reported_value = 55.3

[[record]]
record_sequence = "MAPNIYLVRQRISRLGQRMSGFQINLNPLKEPLGFIKVLEWIASIFAFATCGGFKGQTEIQVNCPPAVTENKTVTATFGYPFRLNEASFQPPPGVNICDVNWKDYVLIGDYSSSAQFYVTFAVFVFLYCIAALLLYVGYTSLYLDSRKLPMIDFVVTLVATFLWLVSTSAWAKALTDIKIATGHNIIDELPPCKKKAVLCYFGSVTSMGSLNVSVIFGFLNMILWGGNAWFVYKETSLHSPSNTSAPHSQGGIPPPTGI [SYPL1]"
assay_system = "HeLa Kyoto"
quantity = "melting temperature"
reported_value = 56.1

[[record]]
record_sequence = "MAYQLYRNTTLGNSLQESLDELIQSQQITPQLALQVLLQFDKAINAALAQRVRNRVNFRGSLNTYRFCDNVWTFVLNDVEFREVTELIKVDKVKIVACDGKNTGSNTTE [GTF2A2]"
assay_system = "HeLa Kyoto"
quantity = "melting temperature"
reported_value = 58.6

